# inhibition at 0.1 µM annotations
Molecular target: UniProt P07333
Sequence (P07333 20-972): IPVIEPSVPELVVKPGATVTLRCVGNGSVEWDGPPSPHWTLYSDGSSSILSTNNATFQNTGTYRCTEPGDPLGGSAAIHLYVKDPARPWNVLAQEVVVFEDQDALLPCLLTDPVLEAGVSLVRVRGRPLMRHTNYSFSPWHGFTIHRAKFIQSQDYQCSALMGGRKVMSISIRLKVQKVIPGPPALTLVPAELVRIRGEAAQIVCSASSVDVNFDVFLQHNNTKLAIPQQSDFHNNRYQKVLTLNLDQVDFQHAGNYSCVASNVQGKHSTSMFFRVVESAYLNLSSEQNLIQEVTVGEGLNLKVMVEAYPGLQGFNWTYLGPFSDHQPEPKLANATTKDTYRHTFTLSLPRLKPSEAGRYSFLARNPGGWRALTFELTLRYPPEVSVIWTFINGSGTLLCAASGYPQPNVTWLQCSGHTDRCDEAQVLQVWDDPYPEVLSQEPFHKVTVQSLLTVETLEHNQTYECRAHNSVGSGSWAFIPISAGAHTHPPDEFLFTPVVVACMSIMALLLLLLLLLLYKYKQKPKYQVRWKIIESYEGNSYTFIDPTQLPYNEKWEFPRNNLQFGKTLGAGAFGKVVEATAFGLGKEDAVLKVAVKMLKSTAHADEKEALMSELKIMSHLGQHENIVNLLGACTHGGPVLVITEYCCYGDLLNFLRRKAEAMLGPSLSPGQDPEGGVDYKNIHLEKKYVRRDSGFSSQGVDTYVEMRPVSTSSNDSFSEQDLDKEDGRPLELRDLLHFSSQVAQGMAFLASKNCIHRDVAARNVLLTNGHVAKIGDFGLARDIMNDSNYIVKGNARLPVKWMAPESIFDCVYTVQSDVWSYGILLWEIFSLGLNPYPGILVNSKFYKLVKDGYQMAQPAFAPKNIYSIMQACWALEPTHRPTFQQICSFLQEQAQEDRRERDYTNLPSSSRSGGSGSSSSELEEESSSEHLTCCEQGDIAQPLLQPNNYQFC
Test: KINOMEscan competition binding assay for CSF1R
Parameters: DNA tag for qPCR (not a peptide); host or cells: E. coli/T7 phage or HEK-293
Details: @ 0.1 uM; read-out: CSF1R kinase binding activity, Percent (%) inhibition
Procedure: KINOMEscan™ is based on a competition binding assay that quantitatively measures the ability of a compound to compete with an immobilized, active-site directed ligand. […] The ability of the test compound to compete with the immobilized ligand is measured via quantitative PCR of the DNA tag. E. coli were grown to log-phase and infected with T7 phage and incubated with shaking at 32° C. until lysis. […] Kds were determined using an 11-point 3-fold compound dilution series with three DMSO control points. […]

Consider the following illustrative entries.
COc1cc2nccc(Oc3ccc(NC(=O)c4nn(C)cc4OCC(F)(F)F)nc3)c2cc1OC; 98%
COc1cc2nccc(Oc3ccc(NC(=O)c4nn(CCN)cc4OCC(F)(F)F)nn3)c2cc1OC; 38%
CCCn1cc(OCCNC)c(C(=O)Nc2ccc(Oc3ccnc4cc(OC)c(OC)cc34)cn2)n1; 38%
COCCn1cc(OCC(F)(F)F)c(C(=O)Nc2ccc(Oc3ccnc4cc(OC)c(OC)cc34)nn2)n1; 78%
COc1cc2nccc(Oc3ccc(NC(=O)c4nn(CC5COC5)cc4OCC(F)(F)F)cc3F)c2cc1OC; 56%
CCC(=O)n1cc(OCC(F)(F)F)c(C(=O)Nc2ccc(Oc3ccnc4cc(OC)c(OC)cc34)cn2)n1; 99%

Task: Which inhibition at 0.1 µM reading was recorded for the compound COc1cc2nccc(Oc3ccc(NC(=O)c4nn(CCCO)cc4OCC(F)(F)F)nc3)c2cc1OC ?
Output: 97%

Task: inhibition at 0.1 µM for COc1cc2nccc(Oc3ccc(NC(=O)c4nn(CC(C)O)cc4OCCF)nc3)c2cc1OC (stereo not drawn) ?
Output: 96%

Task: May I ask what inhibition at 0.1 µM has been recorded for CCCn1cc(OCC(F)(F)F)c(C(=O)Nc2ccc(Oc3ccnc4cc(OC)c(OC)cc34)c(F)c2)n1 ?
Output: 87%

Task: // inhibition at 0.1 µM lookup, key: COc1cc2nccc(Oc3ccc(NC(=O)c4nn(CCOC5CC5)cc4OCC(F)(F)F)cc3C)c2cc1OC
Output: 94%

Task: // query inhibition at 0.1 µM value for entry COc1cc2nccc(Oc3ccc(NC(=O)c4nn(CC(C)C)cc4OCC(F)(F)F)nn3)c2cc1OC
Output: 95%

Task: # query: inhibition at 0.1 µM of entry COc1cc2nccc(Oc3ccc(NC(=O)c4nn(CCO)cc4OCC(F)(F)F)cc3)c2cc1OC
Output: 82%

Task: Entry CCCn1cc(OCC(F)(F)F)c(C(=O)Nc2ccc(Oc3ccnc4cc(OC)c(OC)cc34)cc2F)n1 : reported inhibition at 0.1 µM = ?
Output: 90%

Task: // query inhibition at 0.1 µM value for entry COc1cc2nccc(Oc3ccc(NC(=O)c4nn(C5CCCC5)cc4OCC(F)(F)F)cc3)c2cc1OC
Output: 75%

Task: Look at this compound and give its reported inhibition at 0.1 µM. COc1cc2nccc(Oc3ccc(NC(=O)c4nn(C5CC5)cc4NCCC(F)(F)F)nc3)c2cc1OC
Output: 92%

Task: What value of measured inhibition at 0.1 µM is listed for COc1cc2nccc(Oc3ccc(NC(=O)c4nn(CC(C)C)cc4OCC(F)(F)F)cc3C)c2cc1OC ?
Output: 76%

Task: Please report the recorded inhibition at 0.1 µM for COc1cc2nccc(Oc3ccc(NC(=O)c4nn(CC5CCCC5)cc4OCC(F)(F)F)nc3)c2cc1OC .
Output: 88%

Task: I have this compound here, COc1cc2nccc(Oc3ccc(NC(=O)c4nn(C5CC5)cc4NCC(F)(F)F)nn3)c2cc1OC , and I need its recorded inhibition at 0.1 µM.
Output: 60%

Task: Given the entry COc1cc2nccc(Oc3ccc(NC(=O)c4nn(CC5COC5)cc4OCC(F)(F)F)cn3)c2cc1OC , report its measured inhibition at 0.1 µM.
Output: 18%

Task: Give its inhibition at 0.1 µM value. Item: COc1cc2nccc(Oc3ccc(NC(=O)c4nn(C5CCOC5)cc4OCC(F)(F)F)cc3)c2cc1OC (stereo not drawn)
Output: 54%

Task: Need inhibition at 0.1 µM of COCCn1cc(OCC(F)(F)F)c(C(=O)Nc2ccc(Oc3ccnc4cc(OC)c(OC)cc34)cn2)n1 , thanks.
Output: 98%

Task: Recorded inhibition at 0.1 µM of COc1cc2nccc(Oc3ccc(NC(=O)c4nn(CCC5CCCC5)cc4OCC(F)(F)F)nc3)c2cc1OC , please.
Output: 89%

Task: Param item = COc1cc2nccc(Oc3ccc(NC(=O)c4nn(C5CCNC5)cc4OCC(F)(F)F)nc3)c2cc1OC (stereo not drawn) ; retrieve measured inhibition at 0.1 µM.
Output: 79%

Task: I am curious: what inhibition at 0.1 µM value has been reported for COc1cc2nccc(Oc3ccc(NC(=O)c4nn(C5CC5)cc4OCC4COC4)nn3)c2cc1OC ?
Output: 14%

Task: Entry COc1cc2nccc(Oc3ccc(NC(=O)c4nn(C5CCNC5)cc4OCC(F)(F)F)cn3)c2cc1OC (stereo not drawn) : reported inhibition at 0.1 µM = ?
Output: 16%

Task: Param item = COc1cc2nccc(Oc3ccc(NC(=O)c4nn(C5CC5)cc4OCC4CCC4)nc3)c2cc1OC ; retrieve measured inhibition at 0.1 µM.
Output: 89%

Task: Tell me the measured inhibition at 0.1 µM of CNCCOc1cn(C2CC2)nc1C(=O)Nc1ccc(Oc2ccnc3cc(OC)c(OC)cc23)nn1 , please.
Output: 25%
